Molecular target: hErbB3.mmh (soluble monomeric human ErbB3 extracellular domain with C-terminal myc-myc-hexahistidine tag) (human, UniProt P21860 20-642)
Sequence (P21860 other isoform, or with tags, fused parts or gaps): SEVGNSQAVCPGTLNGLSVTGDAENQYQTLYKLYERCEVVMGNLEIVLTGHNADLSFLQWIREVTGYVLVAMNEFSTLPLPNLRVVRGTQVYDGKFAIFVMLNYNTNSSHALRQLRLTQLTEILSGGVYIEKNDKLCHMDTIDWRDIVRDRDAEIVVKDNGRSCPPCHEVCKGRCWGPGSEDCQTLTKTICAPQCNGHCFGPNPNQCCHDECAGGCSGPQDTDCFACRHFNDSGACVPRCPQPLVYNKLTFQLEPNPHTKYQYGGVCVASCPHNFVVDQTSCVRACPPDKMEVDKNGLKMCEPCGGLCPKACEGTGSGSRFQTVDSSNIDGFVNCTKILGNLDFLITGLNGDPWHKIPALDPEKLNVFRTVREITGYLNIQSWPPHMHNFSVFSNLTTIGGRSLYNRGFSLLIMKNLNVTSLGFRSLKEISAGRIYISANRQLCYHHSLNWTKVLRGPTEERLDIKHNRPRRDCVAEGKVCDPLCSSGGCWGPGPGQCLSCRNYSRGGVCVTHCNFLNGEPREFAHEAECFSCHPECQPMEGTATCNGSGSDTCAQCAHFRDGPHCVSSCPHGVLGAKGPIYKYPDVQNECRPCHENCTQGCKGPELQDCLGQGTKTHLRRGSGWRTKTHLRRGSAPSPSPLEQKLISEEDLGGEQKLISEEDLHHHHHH
Test: SPR (Biacore), 25 C, mAb capture format
propertyName: kon (M⁻¹ s⁻¹)
Write it as a number; the unit M⁻¹ s⁻¹ goes unstated.

Inquiry: Please list kon recorded for the binder H4H2154P (antibody, V domains shown, Fully human, human IgG4 Fc (H4H prefix)) VH: QVQLQESGPGLINPSQTLSVTCTVSGGSISSGGYYWTWIRQHPGKGLEWIGYISYSGNTNYNPSLKSRVTISVDTAKNQFSLKLSSVTAADTAVYFCARDSDVDTAMVDGIDIWGQGTMVTVSS VL: DIQMTQSPSSVSASVGDRVTITCRASQDISSWLAWYQQKPGRAPKLLIYTASSLQSGVPSRFSGSGSGTDFTLTISSLQPEDFATYFCQQANSFPFTFGPGTKVDIKR
Reply text: 2.13e+06

Inquiry: Return reported kon. Input binder: H4H1819N (antibody, V domains shown, Human IgG4 Fc (H4H prefix); same variable domains as H1M1819N) VH: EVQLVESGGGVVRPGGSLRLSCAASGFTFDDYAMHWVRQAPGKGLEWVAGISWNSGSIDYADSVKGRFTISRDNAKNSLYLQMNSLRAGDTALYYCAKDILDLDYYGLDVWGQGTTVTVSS VL: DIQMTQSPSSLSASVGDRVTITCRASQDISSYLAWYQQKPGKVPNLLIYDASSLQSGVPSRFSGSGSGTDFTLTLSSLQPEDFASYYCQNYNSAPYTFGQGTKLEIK
Reply text: 8.1e+06

Inquiry: Specify measured kon for H4H2098P (antibody, V domains shown, Fully human, human IgG4 Fc (H4H prefix)) VH: QVQLVESGGGVVQPGRSLRLSCAASGFTFSSFGMHWVRQAPGKGLEWVAVIWYVEINKYHADSVKGRFTISRDDSKNTVYLQMNSLRAEDTAVYYCARDWNDGDYGMDVWGQGTTVTVSS VL: DIQLTQSPSFLSASVGDRVTITCWASQGISSFLAWYQQKAGKAPRLLIYAASTLQTGVPSRFSGSGSGTEFTLTISSLQPGDFATYHCQQLNSYPYTFGQGTKLEIKR .
Reply text: 1.14e+06

// data source = patent US20140072563A1
